# collection of MIC values tested on Haemophilus influenzae (H. influenzae) 49247

Input: Given the entry CCc1c(-c2ccc3c(c2)cc(CN2C[C@H]4C[C@@H](N(C)C)C[C@H]4C2)n3C)[nH]c(=O)c(C(=O)O)c1O , what MIC was observed with Haemophilus influenzae (H. influenzae) 49247?
Output: 1 to 3.5 mg/L

###

Data export: MIC values recorded with Haemophilus influenzae (H. influenzae) 49247.

Some solved entries appear below for comparison.
CCc1cc(C(=O)O)c(=O)[nH]c1-c1ccc2c(c1)CCCN2C: < 1 µg/mL
CCc1c(-c2ccc3c(c2)cc(CN2CCCC2C)n3C)[nH]c(=O)c(C(=O)O)c1O (centres unmarked): < 1 µg/mL
CCc1c(-c2ccc3c(c2)cc(CN2CCC(N(C)C)C2)n3C)[nH]c(=O)c(C(=O)O)c1O (centres unmarked): 1 to 3.5 µg/mL
CCc1c(-c2ccc3c(c2)cc(CN(CC)CC)n3C)[nH]c(=O)c(C(=O)O)c1O: < 1 µg/mL
CCc1c(-c2ccc3c(c2)cc(CC2CC2C)n3C)[nH]c(=O)c(C(=O)O)c1O.Cl (centres unmarked): < 1 µg/mL
CCc1cc(C(=O)O)c(=O)[nH]c1-c1ccc2c(ccn2C)c1: < 1 µg/mL
CCc1cc(C(=O)O)c(=O)[nH]c1-c1ccc2c(c1)cc(C)n2C: < 1 µg/mL
CCc1c(-c2ccc3c(c2)cc(CNCC2CC2)n3C)[nH]c(=O)c(C(=O)O)c1O.Cl: < 1 µg/mL
CCc1c(-c2ccc3c(c2)cc(CO)n3C)[nH]c(=O)c(C(=O)O)c1O: < 1 µg/mL
Cc1c(-c2ccc3c(c2)cc(CNCC2CC2)n3C)[nH]c(=O)c(C(=O)O)c1O: 1 to 3.5 µg/mL

Input: MIC of CCc1c(-c2ccc3c(c2)cc(CN2CCN(C)CC2)n3C)[nH]c(=O)c(C(=O)O)c1O on Haemophilus influenzae (H. influenzae) 49247?
Output: 1 to 3.5 µg/mL

Input: Reported MIC for Haemophilus influenzae (H. influenzae) 49247, given CCc1c(-c2ccc3c(c2)cc(CNCC2CCCN(C)C2)n3C)[nH]c(=O)c(C(=O)O)c1O.Cl.Cl (centres unmarked) ?
Output: 1 to 3.5 µg/mL

Input: Lab note: need MIC for CC(C)c1cc(C(=O)O)c(=O)[nH]c1-c1ccc2c(ccn2C)c1 on Haemophilus influenzae (H. influenzae) 49247, anyone have it?
Output: < 1 µg/mL

###

# System: K. pneumoniae MXX1232
# protocol: Antibacterial activity, MIC, resistant strain (Table 4)
# Assay type: cell-based
# experimental-context: Klebsiella pneumoniae, MXX1232; resistant K. pneumoniae MMX1232, multi-drug resistant clinical isolate; read-out: MIC, MMX1232
parameter: MIC

Some compounds with known MIC results, for comparison:
CCc1c(-c2ccc3c(c2)c(F)c(CNC)n3C)[nH]c(=O)c(C(=O)O)c1O: 12.5 to 150 µg/mL
CCc1c(-c2cc3cc(F)c(C)cc3n2C)[nH]c(=O)c(C(=O)O)c1O: 12.5 to 150 µg/mL
CCNCc1cc2ccc(-c3[nH]c(=O)c(C(=O)O)c(O)c3CC)cc2[nH]1.Cl: 12.5 to 150 µg/mL

Input: # lookup: MIC of CCc1c(-c2ccc3c(c2)cc(CNCC2CCCN(C)C2)n3C)[nH]c(=O)c(C(=O)O)c1O.Cl.Cl (stereo not shown)
Output: 12.5 to 150 µg/mL

###

# Tested on: E. coli ELZ4251
# protocol: Antibacterial activity, MIC, multi-drug resistant clinical isolate (Table 3)
# Assay type: cell-based
# experimental-context: Escherichia coli
Quick list: MIC per entry.

Cc1c(-c2ccc3c(c2)cc(CNC2CCC2)n3C)[nH]c(=O)c(C(=O)O)c1O: < 1 µg/mL
CCc1c(-c2ccc3c(c2)cc(CN2CC[C@H](N)C2)n3C)[nH]c(=O)c(C(=O)O)c1O: 3.5 to 12.5 µg/mL
CCc1c(-c2ccc3c(c2)cc(CN2CCC(C)CC2)n3C)[nH]c(=O)c(C(=O)O)c1O: 12.5 to 150 µg/mL
CCc1cc(C(=O)O)c(=O)[nH]c1-c1ccc2c(c1)CCCN2C: 12.5 to 150 µg/mL
CCc1c(-c2ccc3c(c2)cc(CN(C)C2CCC2)n3C)[nH]c(=O)c(C(=O)O)c1O.Cl: 12.5 to 150 µg/mL

Input: // query MIC value for entry Cc1c(-c2ccc3c(c2)cc(CN(C)C)n3C)[nH]c(=O)c(C(=O)O)c1O
Output: 1 to 3.5 µg/mL

Input: Param item = CCc1c(-c2ccc3c(c2)cc(CNCC2CCCN(C)C2)n3C)[nH]c(=O)c(C(=O)O)c1O.Cl.Cl (centres unmarked) ; retrieve measured MIC.
Output: 12.5 to 150 µg/mL

Input: What does the data say about its MIC? Entry: CCc1c(-c2ccc3c(c2)cc(CNC2(C)CC2)n3C)[nH]c(=O)c(C(=O)O)c1O
Output: 1 to 3.5 µg/mL

###

# Tested on: E. coli ELZ4251
# protocol: Antibacterial activity, MIC, multi-drug resistant clinical isolate (Table 3)
# Format: cell-based
# experimental-context: Escherichia coli
As shown below, each of these molecules has a reported MIC value.

Here are 3 molecules together with their reported answers.
CCc1c(-c2ccc3c(c2)cc(CN(CC2CC2)C2CCNCC2)n3C)[nH]c(=O)c(C(=O)O)c1O: 3.5 to 12.5 µg/mL
CCc1cc(C(=O)O)c(=O)[nH]c1-c1ccc2c(c1)cc(CCN1CCCCC1)n2C: 12.5 to 150 µg/mL
Cn1c(CNCC2CC2)cc2cc(-c3[nH]c(=O)c(C(=O)O)c(O)c3C3CC3)ccc21: 1 to 3.5 µg/mL

Input: What value of MIC has been reported for the following molecule? CCc1c(-c2ccc3c(c2)cc(CN2C[C@H]4CC[C@@H](N(C)C)[C@H]4C2)n3C)[nH]c(=O)c(C(=O)O)c1O
Output: 12.5 to 150 µg/mL

Input: Requested field: MIC. Item: CCc1c(-c2ccc3c(c2)cc(CN2C[C@H]4CC[C@@H](N)[C@H]4C2)n3C)[nH]c(=O)c(C(=O)O)c1O
Output: 12.5 to 150 µg/mL

Input: Can you share its MIC? I mean this molecule: CCc1c(-c2ccc3c(c2)cc(CN2C[C@H]4C[C@@H](N(C)Cc5ccccc5)C[C@H]4C2)n3C)[nH]c(=O)c(C(=O)O)c1O
Output: 12.5 to 150 µg/mL

Input: Fill in: MIC of CCc1c(-c2ccc3c(c2)cc(CNC(CF)CF)n3C)[nH]c(=O)c(C(=O)O)c1O is ___
Output: 3.5 to 12.5 µg/mL

###

# System: E. coli ELZ4251
# protocol: Antibacterial activity, MIC, multi-drug resistant clinical isolate (Table 3)
# Type: cell-based
# experimental-context: Escherichia coli
Recorded MIC values for a group of compounds are listed next.

CCc1c(-c2ccc3c(c2)cc(CNC2CCCCC2)n3C)[nH]c(=O)c(C(=O)O)c1O.Cl: 3.5 to 12.5 µg/mL

Input: Suppose we examine the compound CCc1c(-c2cnc3c(ccn3C)c2)[nH]c(=O)c(C(=O)O)c1O ; what MIC value has been reported?
Output: < 1 µg/mL

Input: Using the record for CCc1c(-c2ccc3c(cnn3C)c2)[nH]c(=O)c(C(=O)O)c1O , report its MIC.
Output: 3.5 to 12.5 µg/mL

Input: Which value of MIC has been reported for CNCc1cc2cc(-c3[nH]c(=O)c(C(=O)O)c(O)c3C)ccc2n1C in the records?
Output: < 1 µg/mL

Input: Name the recorded MIC for CCc1c(-c2ccc3cc[nH]c3c2)[nH]c(=O)c(C(=O)O)c1O .
Output: 1 to 3.5 µg/mL

###

// values below are reported MIC
# Test system: Haemophilus influenzae (H. influenzae) 49247

Recorded results for 5 compounds are shown here.
C=CCNCc1cc2cc(-c3[nH]c(=O)c(C(=O)O)c(O)c3CC)ccc2n1C.Cl [Cpd 243]: < 1 µg/mL
CCc1c(-c2ccc3c(c2)cc(CN2CCC(NC)CC2)n3C)[nH]c(=O)c(C(=O)O)c1O [Cpd 256]: 1 to 3.5 µg/mL
Cn1ccc2cc(-c3[nH]c(=O)c(C(=O)O)cc3C3CC3)ccc21 [Cpd 35]: < 1 µg/mL
CCc1c(-c2ccc3c(c2)cc(CN(C)C)n3C)[nH]c(=O)c(C(=O)O)c1O [Cpd 166]: < 1 µg/mL
CCc1c(-c2ccc3c(c2)cc(CNCC2CCCCN2C)n3C)[nH]c(=O)c(C(=O)O)c1O.Cl.Cl (centres unmarked) [Cpd 233]: 3.5 to 12.5 µg/mL

Input: Entry CCc1c(-c2ccc3c(ccn3C)c2)[nH]c(=O)c(C(=O)O)c1O [Cpd 22] , system Haemophilus influenzae (H. influenzae) 49247: what MIC was measured?
Output: < 1 µg/mL

Input: // fetch Haemophilus influenzae (H. influenzae) 49247 MIC for C#CCNCc1cc2cc(-c3[nH]c(=O)c(C(=O)O)c(O)c3CC)ccc2n1C.Cl [Cpd 277]
Output: < 1 µg/mL

Input: Query MIC on Haemophilus influenzae (H. influenzae) 49247 for CCc1c(-c2ccc3c(c2)cc(CN2CCC2)n3C)[nH]c(=O)c(C(=O)O)c1O [Cpd 186]
Output: < 1 µg/mL

Where do these numbers come from? They come from patent US9409905B2.
